Target: T1, human α-CGRP 1-37 (WT) (human, C-terminal amide; N-terminal biotin when captured on the SA chip; 125I-labelled in the radioligand assay)
T1 construct: also called α-human
T1 peptide: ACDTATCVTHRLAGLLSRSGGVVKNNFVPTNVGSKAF
Assay: Biacore, 37°C, Fab over CGRP on SA chip
Procedure: Biacore assay for affinity determination. […] All Biacore assays were conducted in HBS-EP running buffer (10 mM HEPES pH 7.4, 150 mM NaCl, 3 mM EDTA, 0.005% v/v polysorbate P20). CGRP surfaces were prepared by diluting the N-biotinylated CGRP to a concentration of less than 0.001 mg/mL into HBS-EP buffer and injecting it across the SA sensor chip using variable contact times. […] Samples were typically injected for 1 minute at 100 μL/min and dissociation times of at least 10 minutes were allowed. […]
endpoint: Kd
Note: a bare number is incomplete; add the unit.

binder	Kd
G1 variant M60 Fab (Fab, V domains shown, Fab; constant domains as m1) VH: EVQLVESGGGLVQPGGSLRLSCAASGFTFSNYWISWVRQAPGKGLEWVAEIRSKSDNRATFYAEAVKGRFTISRDNAKNSLYLQMNSLRAEDTAVYYCTVYFDYGLAIQNYWGQGTLVTVSS VL: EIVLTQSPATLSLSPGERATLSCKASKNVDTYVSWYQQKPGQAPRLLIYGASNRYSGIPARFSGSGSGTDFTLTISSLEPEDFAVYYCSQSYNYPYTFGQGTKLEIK	5.69 nM
G1 variant M26 Fab (Fab, V domains shown, Fab; constant domains as m1) VH: EVQLVESGGGLVQPGGSLRLSCAASGFTFSNYWISWVRQAPGKGLEWVAEIRSESDGSATHYAEAVKGRFTISRDNAKNSLYLQMNSLRAEDTAVYYCTVYFDYGLAIQNYWGQGTLVTVSS VL: EIVLTQSPATLSLSPGERATLSCKASKNVTTYVSWYQQKPGQAPRLLIYGASNRYLGIPARFSGSGSGTDFTLTISSLEPEDFAVYYCSQSYNYPYTFGQGTKLEIK	0.93 nM

Please look at the following binder next.
Reported Kd ( G1 variant M12 Fab (Fab, V domains shown, Fab; constant domains as m1) VH: EVQLVESGGGLVQPGGSLRLSCAASGFTFSNYWISWVRQAPGKGLEWVAEIRSESDASATHYAEAVKGRFTISRDNAKNSLYLQMNSLRAEDTAVYYCSVYFDYGLAIQNYWGQGTLVTVSS VL: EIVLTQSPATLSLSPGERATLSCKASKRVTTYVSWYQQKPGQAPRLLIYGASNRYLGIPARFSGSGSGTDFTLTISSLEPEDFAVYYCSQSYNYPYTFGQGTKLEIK ) = 0.63 nM
